Experiment: antimalarial activity against Dd2 strain (AID 2302);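 note: 0% = DMSO untreated growth and 100% = chloroquine plus artemisinin killed control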
Conditions: P. falciparum Dd2 in RBCs, LDH growth readout, 72 h; at 2 µM
The source made the active and inactive calls.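 Rule for the calls: active = growth inhibition above 50% at the single 2 µM test dose, taken to imply half-maximal potency below 2 µM; inactive = the rest.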
Use one of these outcomes when replying: active, inactive

COMPOUND	CLASS_NAME
CCc1c(CCNCCCC(C)CCNCCc2ccc(OC)c(OC)c2CC)ccc(OC)c1OC (stereo not given)	inactive

// outcome(item) with item = CCNC(=O)N1CCc2ccc(Oc3nc(NCc4ccccc4OC)ncc3C)cc2CC1
active

// outcome(item) with item = CCCc1cc(C)ccc1OCCCON1C(N)=NC(N)=NC1(C)C
active

// outcome(item) with item = CCNC(=O)Nc1cccc(-c2cccc(-c3nc4c(C)cccc4[nH]3)c2)c1
inactive

// outcome(item) with item = COc1cc(NC(=O)/C=C/c2cccc3cc[nH]c23)ccc1OCCN(C(C)C)C(C)C
active

----------
Experiment: antimalarial activity against Dd2 strain (AID 2302);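 note: 0% = DMSO untreated growth and 100% = chloroquine plus artemisinin killed control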
Settings: P. falciparum Dd2 in RBCs, LDH growth readout, 72 h; at 2 µM; active compounds read high
We begin with a simple list: items and their reported growth inhibition.
Write the value in % as a bare number.

Example entries begin here.
MOLECULE	PARAMETER	NUMERIC_RESULT
CCCCc1cc(O)c2c(c1)OC(C)(C)C=C2C1=CCN(Cc2ccccc2)CC1	growth inhibition	3
Cc1nc(-c2ccccc2)nc(N2CCN(C(=O)c3ccco3)CC2)c1Cc1ccccc1F	growth inhibition	86

What does the record list as growth inhibition for CCN(CC)CCOc1ccc(C(O)(C#CC(O)(c2ccc(Br)cc2)c2ccc(OCCN(CC)CC)cc2)c2ccc(Br)cc2)cc1 (centres undefined) ?
99

What does the record list as growth inhibition for O=C(/C=C/c1ccc(Cl)c(Cl)c1)NCCCCCN1CCCC(C(=O)Nc2ccc(F)c(Cl)c2)C1 (centres undefined) ?
2

What does the record list as growth inhibition for O=C(Nc1ccc(NC2=NCCN2)cc1)c1ccc(C(=O)Nc2ccc(NC3=NCCN3)cc2)cc1 ?
86

What does the record list as growth inhibition for COc1cc(Nc2nccc(N3CCC(NC(=O)Nc4cc(C)ccc4C)C3)n2)cc(OC)c1OC (centres undefined) ?
52

What does the record list as growth inhibition for CCc1ccc(C2CCN(CCCCNC(=O)c3ccc(-c4ccc(Cl)cc4)cc3)CC2)c(O)c1 ?
99

What does the record list as growth inhibition for Nc1cccc(CNCc2cccc(-c3ccc(-c4nc5ccccc5[nH]4)cc3)c2)c1 ?
92

What does the record list as growth inhibition for COc1ccc2nc(/C=C/c3cccc4ccc(C)nc34)[nH]c2c1 ?
77

----------
Test: human hepatoma cell viability loss – ATP luminescence, cytotoxicity control for P. falciparum antimalarial project, primary screen (AID 2303);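 note: 0% = DMSO wells and 100% = digitonin-killed cells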
Details: HepG2 viability, 24-48 h, at 10 µM, active compounds read high
Hi! Could you tag entries with inhibition below 10% as Met, and those at or above as Not met? Much appreciated.

Below, 4 compounds whose answers are already recorded.
COMPOUND	CLASS_NAME
COc1ccc(-c2cc(NCc3ccc(-n4ccnc4)cc3)nc(Nc3ccccc3)n2)cc1	Met
COc1cc(F)c2ncc(Cl)c(C(O)CN3CCC(NC(=O)c4ccc5c(n4)NC(=O)CO5)CC3)c2c1 (centres undefined)	Not met
CCOC(=O)CCCc1cc(NC2CCN(C)CC2)nc(Nc2ccc(C)cc2)n1	Not met
O=C(Nc1ccc(F)c(Cl)c1)c1cc([N+](=O)[O-])cc2cn[nH]c12	Not met

Does the reported inhibition of the following compound sit strictly below 10%? O=C(NC1CCCc2ccccc21)[C@@H]1CCCN1C(=O)c1ccc(O)c(-c2cccc([N+](=O)[O-])c2)c1 (some centres undefined)
Met

Does the reported inhibition of the following compound sit strictly below 10%? NC(N)=NN=Cc1c2ccc(Cl)cc2c(Cl)c2ccc(Cl)cc12
Not met

Does the reported inhibition of the following compound sit strictly below 10%? COc1cccc(CNC(=O)[C@@H]2CN(C(=O)c3ccccc3)CCN2)c1
Met

Does the reported inhibition of the following compound sit strictly below 10%? Nc1nc(N)c2c(Cc3ccc(Br)cc3)cccc2n1
Not met

Does the reported inhibition of the following compound sit strictly below 10%? O=C(Nc1cccc(-c2cccc(-c3nc4ccc(C(F)(F)F)cc4[nH]3)c2)c1)c1cnc[nH]1
Not met

----------
Target: L-lactate dehydrogenase (Plasmodium falciparum (isolate CDC / Honduras))
Assay: PfLDH activity inhibition – cell lysate, 3D7 strain, counter-screen for P. falciparum growth inhibition project (AID 2304);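 note: 0% = vehicle and 100% = reference inhibitor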
Conditions: P. falciparum 3D7 crude extract, LDH APAD/NBT absorbance; at 2 µM; active compounds read high
Activity calls are given as the source filed them. No rule for the calls is given here.
PARAMETER: inhibition

Example entries begin here.
COMPOUND	TESTED_ON	inhibition
CN1CCCC1CCNc1ncc2c(-c3ccc(NC(=O)Nc4cc(C(F)(F)F)ccc4F)c(F)c3)nn(C)c2n1 (centres undefined)	L-lactate dehydrogenase (Plasmodium falciparum (isolate CDC / Honduras))	1% (inactive)
O=C(Nc1ccc(-c2ccc(-c3nc4ccccc4[nH]3)s2)cc1)c1ccncc1	L-lactate dehydrogenase (Plasmodium falciparum (isolate CDC / Honduras))	-5% (inactive)
Nc1nccc2ccc(-c3ccc4nccn4c3)cc12	L-lactate dehydrogenase (Plasmodium falciparum (isolate CDC / Honduras))	-2% (inactive)
O=C(Nc1ccc(C(=O)N2CCN(CCN3CCN(c4cccc(C(F)(F)F)c4)CC3)CC2)cc1)c1cc(Cl)cc(Cl)c1	L-lactate dehydrogenase (Plasmodium falciparum (isolate CDC / Honduras))	3% (inactive)
O=C(Nc1cccc([N+](=O)[O-])c1)Nc1cccc(C(F)(F)F)c1	L-lactate dehydrogenase (Plasmodium falciparum (isolate CDC / Honduras))	-8% (inactive)
CN1CCCN(Cc2cccc(-c3ccc(NC(=O)c4ccc(Cl)cc4)cc3)c2)CC1	L-lactate dehydrogenase (Plasmodium falciparum (isolate CDC / Honduras))	-5% (inactive)
Cc1cccc2[nH]c(-c3cccc(-c4cccc(NC(=O)C(C)CN5CCN(C)CC5)c4)c3)nc12 (centres undefined)	L-lactate dehydrogenase (Plasmodium falciparum (isolate CDC / Honduras))	1% (inactive)
CCCCCCN1CCN(Cc2cccc(NC(=O)c3ccc(Cl)c(Cl)c3)c2)CC1	L-lactate dehydrogenase (Plasmodium falciparum (isolate CDC / Honduras))	-4% (inactive)

Then there is this compound:
What does the record list as inhibition for CNCCCn1c(N(C)C)nc2cc(-n3cnc4cc(-c5ccc(Cl)cc5)sc4c3=O)ccc21 ?
1% (inactive)

----------
Experiment: human hepatoma cell viability loss – ATP luminescence, cytotoxicity control for P. falciparum antimalarial project, primary screen (AID 2303);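 note: 0% = DMSO wells and 100% = digitonin-killed cells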
Details: HepG2 viability, 24-48 h, at 10 µM, active compounds read high
PARAMETER: inhibition (%)
Write the value in % as a bare number.

COMPOUND	inhibition / %
N#Cc1ccc(N(CCOC(=O)c2ccccc2)Cc2ccccc2C(F)(F)F)cc1C(F)(F)F	6
c1cc(-c2ccc(CNC3CCOCC3)cc2)cc(-c2nc3ccccc3[nH]2)c1	30
CC(C)=C(C(=O)OCc1ccccc1)N1C(=O)[C@@H](NC(c2ccccc2)(c2ccccc2)c2ccccc2)[C@H]1[S@@](=O)CC(=O)OC(C)(C)C	-2
CCOC(=O)c1ccc(N2CCN(c3cc(C)ccc3C)CC2)c(NC(=O)Nc2ccc(Cl)c(Cl)c2)c1	7
CCc1cc(NC2CCN(C)CC2)nc(Nc2ccc(C)cc2)n1	3

Then there is this compound:
What does the record list as inhibition for Cc1ccccc1OCC(O)CNC1CCC(NCC(O)COc2ccccc2C)CC1 (stereo not given) ?
96

----------
Biological target: L-lactate dehydrogenase (Plasmodium falciparum (isolate CDC / Honduras))
Test: PfLDH activity inhibition – cell lysate, 3D7 strain, counter-screen for P. falciparum growth inhibition project (AID 2304);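 note: 0% = vehicle and 100% = reference inhibitor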
Details: P. falciparum 3D7 crude extract, LDH APAD/NBT absorbance; at 2 µM; active compounds read high
We begin with a simple list: items and their reported inhibition.
Write the value in % as a bare number.

Example entries begin here.
COMPOUND	TESTED_ON	inhibition [%]
Cc1nnc2c(NC(=O)NC3CCCC3)cc3ccc(-c4cccc(CN(C)C)c4)cc3n12	L-lactate dehydrogenase (Plasmodium falciparum (isolate CDC / Honduras))	3
CCOC(=O)CCCc1cc(NC2CCN(C)CC2)nc(Nc2ccc(OC)cc2)n1	L-lactate dehydrogenase (Plasmodium falciparum (isolate CDC / Honduras))	-2
Cc1cc(=O)[nH]c(/N=C(/N)NOCCCc2ccccc2)n1	L-lactate dehydrogenase (Plasmodium falciparum (isolate CDC / Honduras))	3
CC1(C)N=C(N)N=C(N)N1OCc1cccc2c1ccc1ccccc12	L-lactate dehydrogenase (Plasmodium falciparum (isolate CDC / Honduras))	4

What does the record list as inhibition for Cc1ccc(NS(=O)(=O)c2cccs2)cc1-c1cccc(C(=O)Nc2ccc(F)cc2)c1 ?
0

What does the record list as inhibition for CN1CCC(c2nc(N)no2)C1 (stereo not given) ?
0

What does the record list as inhibition for COc1cc2ccccc2c(OC)c1CCNCCCCNCCc1c(OC)cc2ccccc2c1OC ?
7

----------
Target: L-lactate dehydrogenase (Plasmodium falciparum (isolate CDC / Honduras))
Test: PfLDH activity inhibition – cell lysate, 3D7 strain, counter-screen for P. falciparum growth inhibition project (AID 2304);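 note: 0% = vehicle and 100% = reference inhibitor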
Conditions: P. falciparum 3D7 crude extract, LDH APAD/NBT absorbance; at 2 µM; active compounds read high
PARAMETER: inhibition (%)
Write the value in % as a bare number.

COMPOUND	UNIT_TAG	inhibition
Cc1cc(N[C@@H](Cc2ccccc2)C(=O)NCc2cccc(F)c2)nc(NCCc2ccc(F)cc2)n1	%	-2
COc1cc(Cc2cnc(N)nc2N)cc(OCCn2ccccc2=O)c1OC	%	2
FC(F)(F)c1ccc2nc(-c3cccc(-c4cccc(CNCC5CCCO5)c4)c3)[nH]c2c1 (stereo not given)	%	-2
Cn1cncc1C(=O)Nc1ccc(-c2cccc(-c3nc4ccc(C(F)(F)F)cc4[nH]3)c2)cc1	%	4
Cc1noc(C)c1-c1ccc2c(Nc3ccccc3C(C)(C)C)c(C(=O)NCc3ccccc3)cnc2c1	%	-1
CS(=O)(=O)Nc1ccc2c(C3CCN(CCC4CCN(C(=O)/C=C/c5ccc(Cl)c(Cl)c5)CC4)CC3)c[nH]c2c1	%	-3
CN(C(=O)c1nn(-c2ccccn2)c2nccc(-c3cccs3)c12)C1CCCCC1	%	-1
CN(Cc1cccc(C#N)c1)C1CCN(c2cc(NC(=O)c3ccc(F)cc3)ccn2)CC1	%	-1
Cc1noc(-c2ccc(NC[C@@H](C)NC[C@H](O)c3cccc(Cl)c3)cc2)n1	%	-1
O=C(NCc1cccc(CN2CCOCC2)c1)c1cc(Br)cc(N2CCN(c3ccncc3)CC2)c1	%	-2

What does the record list as inhibition for COc1ccc(C(=O)Nc2nonc2-c2ccc(OC)c(OC)c2)cc1Cl ?
0

What does the record list as inhibition for O=C(NC1CCCCCC1)[C@@H]1CCCN1C(=O)c1ccc(O)c(-c2ccc(Cl)c(Cl)c2)c1 ?
-7
